Values were extracted from the NIST ThermoML archive (doi:10.1021/je400140n).

assay: molar heat capacity at constant pressure; conditions: 312.2 K; 101.33 kPa; Liquid; Small sample (50 mg) DSC
recorded endpoint: molar heat capacity at constant pressure (J/K/mol)
Field: numeric (J/K/mol). Do not append units.

Tell me molar heat capacity at constant pressure reported for CCCCn1cc[n+](C)c1.N#CN=C=[N-] [1-butyl-3-methylimidazolium dicyanamide] 365.98

Tell me molar heat capacity at constant pressure reported for CCCCn1cc[n+](C)c1.N#C[S-] [1-butyl-3-methylimidazolium thiocyanate] 322.98

Tell me molar heat capacity at constant pressure reported for CCn1cc[n+](C)c1.N#C[S-] [1-ethyl-3-methylimidazolium thiocyanate] 287.89

Tell me molar heat capacity at constant pressure reported for O=S1(=O)CCCC1 [sulfolane] 183.5

Tell me molar heat capacity at constant pressure reported for CCn1cc[n+](C)c1.N#CN=C=[N-] [1-ethyl-3-methylimidazolium dicyanamide] 332.44

Tell me molar heat capacity at constant pressure reported for CCn1cc[n+](C)c1.N#C[C-](C#N)C#N [1-ethyl-3-methyl-1H-imidazolium tricyanomethanide] 365.83

###

experiment: molar heat capacity at constant pressure; details: 300.2 K; 101.33 kPa; Liquid; Small sample (50 mg) DSC
Values of molar heat capacity at constant pressure greater than or equal to 300 J/K/mol map to criterion met; values below map to criterion not met.

Could you please find out whether CCn1cc[n+](C)c1.N#C[S-] [1-ethyl-3-methylimidazolium thiocyanate] has molar heat capacity at constant pressure that meets 300 J/K/mol or exceeds it? criterion not met

Could you please find out whether CCn1cc[n+](C)c1.N#CN=C=[N-] [1-ethyl-3-methylimidazolium dicyanamide] has molar heat capacity at constant pressure that meets 300 J/K/mol or exceeds it? criterion met

Could you please find out whether CCCCn1cc[n+](C)c1.N#C[S-] [1-butyl-3-methylimidazolium thiocyanate] has molar heat capacity at constant pressure that meets 300 J/K/mol or exceeds it? criterion met

Could you please find out whether CCCCn1cc[n+](C)c1.N#CN=C=[N-] [1-butyl-3-methylimidazolium dicyanamide] has molar heat capacity at constant pressure that meets 300 J/K/mol or exceeds it? criterion met

Could you please find out whether CCn1cc[n+](C)c1.N#C[C-](C#N)C#N [1-ethyl-3-methyl-1H-imidazolium tricyanomethanide] has molar heat capacity at constant pressure that meets 300 J/K/mol or exceeds it? criterion met

###

experiment: molar heat capacity at constant pressure; conditions: 324.2 K; 101.33 kPa; Liquid; Small sample (50 mg) DSC
Numbers after ± are expanded uncertainties.
recorded endpoint: molar heat capacity at constant pressure
Reply with the number and its unit after it.

Tell me molar heat capacity at constant pressure reported for O=S1(=O)CCCC1 [sulfolane] 187.11 ± 30 J/K/mol

Tell me molar heat capacity at constant pressure reported for CCCCn1cc[n+](C)c1.N#CN=C=[N-] [1-butyl-3-methylimidazolium dicyanamide] 370.08 ± 60 J/K/mol

Tell me molar heat capacity at constant pressure reported for CCn1cc[n+](C)c1.N#C[C-](C#N)C#N [1-ethyl-3-methyl-1H-imidazolium tricyanomethanide] 370.26 ± 60 J/K/mol

Tell me molar heat capacity at constant pressure reported for CCCCn1cc[n+](C)c1.N#C[S-] [1-butyl-3-methylimidazolium thiocyanate] 326.93 ± 52 J/K/mol

Tell me molar heat capacity at constant pressure reported for CCn1cc[n+](C)c1.N#C[S-] [1-ethyl-3-methylimidazolium thiocyanate] 292.12 ± 47 J/K/mol

Tell me molar heat capacity at constant pressure reported for CCn1cc[n+](C)c1.N#CN=C=[N-] [1-ethyl-3-methylimidazolium dicyanamide] 337.76 ± 54 J/K/mol

###

experiment: molar heat capacity at constant pressure; settings: 296.2 K; 101.33 kPa; Liquid; Small sample (50 mg) DSC
recorded endpoint: molar heat capacity at constant pressure (J/K/mol)
Field: numeric (J/K/mol). Do not append units.

Tell me molar heat capacity at constant pressure reported for CCn1cc[n+](C)c1.N#C[S-] [1-ethyl-3-methylimidazolium thiocyanate] 284.51

Tell me molar heat capacity at constant pressure reported for CCn1cc[n+](C)c1.N#CN=C=[N-] [1-ethyl-3-methylimidazolium dicyanamide] 323.76

Tell me molar heat capacity at constant pressure reported for CCCCn1cc[n+](C)c1.N#CN=C=[N-] [1-butyl-3-methylimidazolium dicyanamide] 359.41

Tell me molar heat capacity at constant pressure reported for CCCCn1cc[n+](C)c1.N#C[S-] [1-butyl-3-methylimidazolium thiocyanate] 319.63

Tell me molar heat capacity at constant pressure reported for CCn1cc[n+](C)c1.N#C[C-](C#N)C#N [1-ethyl-3-methyl-1H-imidazolium tricyanomethanide] 357.18

###

test: molar heat capacity at constant pressure; conditions: 332.2 K; 101.33 kPa; Liquid; Small sample (50 mg) DSC
Values of molar heat capacity at constant pressure greater than or equal to 300 J/K/mol map to True; values below map to False.

Could you please find out whether CCCCn1cc[n+](C)c1.N#C[S-] [1-butyl-3-methylimidazolium thiocyanate] has molar heat capacity at constant pressure that meets 300 J/K/mol or exceeds it? True

Could you please find out whether CCn1cc[n+](C)c1.N#C[C-](C#N)C#N [1-ethyl-3-methyl-1H-imidazolium tricyanomethanide] has molar heat capacity at constant pressure that meets 300 J/K/mol or exceeds it? True

Could you please find out whether O=S1(=O)CCCC1 [sulfolane] has molar heat capacity at constant pressure that meets 300 J/K/mol or exceeds it? False

Could you please find out whether CCCCn1cc[n+](C)c1.N#CN=C=[N-] [1-butyl-3-methylimidazolium dicyanamide] has molar heat capacity at constant pressure that meets 300 J/K/mol or exceeds it? True

Could you please find out whether CCn1cc[n+](C)c1.N#CN=C=[N-] [1-ethyl-3-methylimidazolium dicyanamide] has molar heat capacity at constant pressure that meets 300 J/K/mol or exceeds it? True

###

test: molar heat capacity at constant pressure; details: 356.2 K; 101.33 kPa; Liquid; Small sample (50 mg) DSC
Values of molar heat capacity at constant pressure greater than or equal to 300 J/K/mol map to 1; values below map to 0.

Could you please find out whether CCn1cc[n+](C)c1.N#C[C-](C#N)C#N [1-ethyl-3-methyl-1H-imidazolium tricyanomethanide] has molar heat capacity at constant pressure that meets 300 J/K/mol or exceeds it? 1

Could you please find out whether CCn1cc[n+](C)c1.N#CN=C=[N-] [1-ethyl-3-methylimidazolium dicyanamide] has molar heat capacity at constant pressure that meets 300 J/K/mol or exceeds it? 1

Could you please find out whether CCCCn1cc[n+](C)c1.N#C[S-] [1-butyl-3-methylimidazolium thiocyanate] has molar heat capacity at constant pressure that meets 300 J/K/mol or exceeds it? 1

Could you please find out whether "O=S1(=O)CCCC1" has molar heat capacity at constant pressure that meets 300 J/K/mol or exceeds it? 0

Could you please find out whether CCn1cc[n+](C)c1.N#C[S-] [1-ethyl-3-methylimidazolium thiocyanate] has molar heat capacity at constant pressure that meets 300 J/K/mol or exceeds it? 1

Could you please find out whether CCCCn1cc[n+](C)c1.N#CN=C=[N-] [1-butyl-3-methylimidazolium dicyanamide] has molar heat capacity at constant pressure that meets 300 J/K/mol or exceeds it? 1

###

assay: molar heat capacity at constant pressure; settings: 340.2 K; 101.33 kPa; Liquid; Small sample (50 mg) DSC
Would you kindly list molar heat capacity at constant pressure for each of these compounds?
Field: numeric (J/K/mol). Do not append units.

Tell me molar heat capacity at constant pressure reported for CCCCn1cc[n+](C)c1.N#C[S-] [1-butyl-3-methylimidazolium thiocyanate] 336

Tell me molar heat capacity at constant pressure reported for CCn1cc[n+](C)c1.N#C[S-] [1-ethyl-3-methylimidazolium thiocyanate] 300.59

Tell me molar heat capacity at constant pressure reported for CCn1cc[n+](C)c1.N#C[C-](C#N)C#N [1-ethyl-3-methyl-1H-imidazolium tricyanomethanide] 379.31

Tell me molar heat capacity at constant pressure reported for "O=S1(=O)CCCC1" 194.32

Tell me molar heat capacity at constant pressure reported for CCCCn1cc[n+](C)c1.N#CN=C=[N-] [1-butyl-3-methylimidazolium dicyanamide] 380.35

Tell me molar heat capacity at constant pressure reported for CCn1cc[n+](C)c1.N#CN=C=[N-] [1-ethyl-3-methylimidazolium dicyanamide] 348.21

###

test: molar heat capacity at constant pressure; conditions: 372.2 K; 101.33 kPa; Liquid; Small sample (50 mg) DSC
recorded endpoint: molar heat capacity at constant pressure (J/K/mol)
Field: numeric (J/K/mol). Do not append units.

Tell me molar heat capacity at constant pressure reported for CCn1cc[n+](C)c1.N#C[C-](C#N)C#N [1-ethyl-3-methyl-1H-imidazolium tricyanomethanide] 403.06

Tell me molar heat capacity at constant pressure reported for O=S1(=O)CCCC1 [sulfolane] 213.66

Tell me molar heat capacity at constant pressure reported for CCn1cc[n+](C)c1.N#CN=C=[N-] [1-ethyl-3-methylimidazolium dicyanamide] 376.74

Tell me molar heat capacity at constant pressure reported for CCCCn1cc[n+](C)c1.N#CN=C=[N-] [1-butyl-3-methylimidazolium dicyanamide] 413.6

Tell me molar heat capacity at constant pressure reported for CCCCn1cc[n+](C)c1.N#C[S-] [1-butyl-3-methylimidazolium thiocyanate] 360.27

Tell me molar heat capacity at constant pressure reported for CCn1cc[n+](C)c1.N#C[S-] [1-ethyl-3-methylimidazolium thiocyanate] 323.43
